# ASSAY SYSTEM: M4 muscarinic receptor (Homo sapiens, UniProt P08173)
# Construct: expressed in transfected cells; host or cells: CHO (M4-CHO)
# Sequence (P08173 whole entry): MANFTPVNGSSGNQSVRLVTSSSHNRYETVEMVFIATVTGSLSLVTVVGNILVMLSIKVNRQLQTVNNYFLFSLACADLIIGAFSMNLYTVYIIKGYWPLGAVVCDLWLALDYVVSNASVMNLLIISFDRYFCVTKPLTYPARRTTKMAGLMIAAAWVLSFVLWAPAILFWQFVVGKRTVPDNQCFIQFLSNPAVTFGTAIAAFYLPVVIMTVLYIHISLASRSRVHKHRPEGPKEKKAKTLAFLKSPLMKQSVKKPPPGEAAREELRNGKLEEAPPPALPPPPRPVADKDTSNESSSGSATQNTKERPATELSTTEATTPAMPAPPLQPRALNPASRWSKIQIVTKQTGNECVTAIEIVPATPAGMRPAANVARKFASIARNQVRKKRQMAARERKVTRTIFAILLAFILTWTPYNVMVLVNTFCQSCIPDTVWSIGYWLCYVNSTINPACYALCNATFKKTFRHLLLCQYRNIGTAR
# METHOD SUMMARY: Functional mobilization of intracellular calcium (FLIPR) in M4-CHO cells
# Type: cell-based
# APPLIED CONDITIONS: Table 4; 100% efficacy is the maximum response obtained with the Carbachol control
Some compounds, each annotated with its measured Emax.

[
  {
    "COMPOUND": "CN(C)C(=O)N1CC2(CCN(C3CCN(C(=O)c4cccnc4)CC3)CC2)c2cc(F)ccc21 [compound 795]",
    "Emax": "< 25%"
  },
  {
    "COMPOUND": "CCOC(=O)N1CCC(N2CCC3(CC2)CN(c2cncnc2)c2ccc(F)cc23)CC1 [compound 855]",
    "Emax": "25 to 100%"
  },
  {
    "COMPOUND": "CC(=O)N1CC2(CCN(C[C@@H]3CCN(C(=O)OCC(F)F)C3)CC2)c2ccccc21 [compound 1015]",
    "Emax": "< 25%"
  },
  {
    "COMPOUND": "CC(=O)N[C@H]1CCC2(CCN(CCC3=C(C)CCCC3(C)C)CC2)c2ccccc21 [compound 764]",
    "Emax": "< 25%"
  }
]

###

# ASSAY SYSTEM: M1 muscarinic receptor (Homo sapiens)
# Construct: expressed in transfected cells; host or cells: CHO (M1-CHO)
# Sequence (P11229 whole entry): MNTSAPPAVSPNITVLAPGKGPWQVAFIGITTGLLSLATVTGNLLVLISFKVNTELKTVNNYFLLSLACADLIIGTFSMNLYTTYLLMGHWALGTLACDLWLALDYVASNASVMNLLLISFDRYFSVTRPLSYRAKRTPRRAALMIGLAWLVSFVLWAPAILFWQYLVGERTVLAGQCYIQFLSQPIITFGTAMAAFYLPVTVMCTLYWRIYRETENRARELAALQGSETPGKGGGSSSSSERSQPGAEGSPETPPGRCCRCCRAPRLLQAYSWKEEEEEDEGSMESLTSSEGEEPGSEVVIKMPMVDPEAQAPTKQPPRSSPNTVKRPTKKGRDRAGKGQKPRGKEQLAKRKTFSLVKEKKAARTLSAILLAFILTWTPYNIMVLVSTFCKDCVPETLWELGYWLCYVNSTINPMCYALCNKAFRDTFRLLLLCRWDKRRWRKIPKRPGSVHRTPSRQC
# METHOD SUMMARY: Functional mobilization of intracellular calcium (FLIPR) in M1-CHO cells
# Format: cell-based
# APPLIED CONDITIONS: M1-CHO cells, calcium mobilization (FLIPR); read-out: M1 Efficacy

[
  {
    "MOLECULE": "COCCOC(=O)N1CCC(CN2CCC3(CC2)CN(C(C)=O)c2ccc(C)cc23)CC1 [compound 419]",
    "Emax": "< 65%"
  },
  {
    "MOLECULE": "c1ccc2c(c1)NCC21CCN(C2CC3CCC(C3)C2)CC1 (centres unmarked) [compound 420]",
    "Emax": "< 65%"
  },
  {
    "MOLECULE": "CCOC(=O)N1CCC(N2CCC3(CC2)CN(C(=O)OCC)c2ccc(F)cc23)CC1 [compound 427]",
    "Emax": "< 65%"
  },
  {
    "MOLECULE": "Fc1ccc2c(c1)C1(CCN(C3CC4CCC3C4)CC1)CN2 (centres unmarked) [compound 416]",
    "Emax": "< 65%"
  },
  {
    "MOLECULE": "CC(=O)NC1CC2(CCN(C[C@H]3C[C@H]4C=C[C@H]3C4)CC2)c2ccccc21 (some centres unmarked) [compound 392]",
    "Emax": "65 to 85%"
  },
  {
    "MOLECULE": "O=C(C1CC1)N1CC2(CCN(C3CC4CCC(C3)N4C(=O)OC3CCC3)CC2)c2cc(F)ccc21 (centres unmarked) [compound 379]",
    "Emax": "65 to 85%"
  },
  {
    "MOLECULE": "CC(=O)NC1CC2(CCN(C[C@@H]3C[C@H]4C=C[C@H]3C4)CC2)c2ccccc21 (some centres unmarked) [compound 408]",
    "Emax": "65 to 85%"
  },
  {
    "MOLECULE": "CCOC(=O)N1CCC(N2CCC3(CC2)CN(C(=O)c2ccccc2)c2ccc(F)cc23)CC1 [compound 384]",
    "Emax": "< 65%"
  },
  {
    "MOLECULE": "CC(=O)N1CC2(CCN(C3CCN(C(=O)O[C@@H]4CCOC4)CC3)CC2)c2cc(F)ccc21 [compound 424]",
    "Emax": "< 65%"
  },
  {
    "MOLECULE": "CC(=O)N1CC2(CCN(C3CCCCC3)CC2)c2cc(F)ccc21 [compound 387]",
    "Emax": "65 to 85%"
  },
  {
    "MOLECULE": "Clc1ccc2c(c1)C1(CCN(CC3CCOCC3)CC1)CO2 [compound 415]",
    "Emax": "< 65%"
  },
  {
    "MOLECULE": "CCOC(=O)N1CCC(N2CCC3(CC2)CN(CCOC)c2ccc(F)cc23)CC1 [compound 391]",
    "Emax": "< 65%"
  },
  {
    "MOLECULE": "CC(=O)N1CC2(CCN(CC3CCN(C(=O)OC(C)C)CC3)CC2)c2cc(C)ccc21 [compound 404]",
    "Emax": "< 65%"
  },
  {
    "MOLECULE": "COC(=O)N1CCC(CN2CCC3(CC2)CN(C(C)=O)c2ccc(C)cc23)CC1 [compound 423]",
    "Emax": "< 65%"
  },
  {
    "MOLECULE": "COC(=O)N1C2CCC1CC(N1CCC3(CC1)CN(S(C)(=O)=O)c1ccc(F)cc13)C2 (centres unmarked) [compound 383]",
    "Emax": "65 to 85%"
  },
  {
    "MOLECULE": "CC(=O)N1CC2(CCN(C3CCN(C(=O)OCCF)C3)CC2)c2cc(F)ccc21 (centres unmarked) [compound 394]",
    "Emax": "< 65%"
  },
  {
    "MOLECULE": "CCOC(=O)N1CCC(CN2CCC3(CCc4ccccc43)CC2)CC1 [compound 414]",
    "Emax": "< 65%"
  },
  {
    "MOLECULE": "CC(=O)CN1CC2(CCN(C[C@@H]3C[C@H]4C=C[C@H]3C4)CC2)c2cc(F)ccc21 [compound 385]",
    "Emax": "65 to 85%"
  },
  {
    "MOLECULE": "CC(=O)N1CC2(CCN(C3CCN(C(=O)O[C@H]4CCOC4)CC3)CC2)c2cc(C)ccc21 [compound 398]",
    "Emax": "< 65%"
  },
  {
    "MOLECULE": "CCOC(=O)N1CCC(N2CCC3(CC2)CN(C(=O)O[C@H]2CCOC2)c2ccc(F)cc23)CC1 [compound 428]",
    "Emax": "< 65%"
  },
  {
    "MOLECULE": "CCOC(=O)N1CCC(N2CCC3(CC2)CN(C(C)=O)c2ccc(C4=CCCC4)cc23)CC1 [compound 426]",
    "Emax": "< 65%"
  },
  {
    "MOLECULE": "CCNC(=O)N1CC2(CCN(C3CC4CCC3C4)CC2)c2cc(C)ccc21 (centres unmarked) [compound 400]",
    "Emax": "< 65%"
  },
  {
    "MOLECULE": "Cc1ccc2c(c1)C1(CCN(C3CC4CCC(C4)C3)CC1)CN2 (centres unmarked) [compound 397]",
    "Emax": "65 to 85%"
  },
  {
    "MOLECULE": "CCOC(=O)N1CCC(N2CCC3(CC2)CN(C(C)=O)c2ccc(F)cc23)CC1 [compound 413]",
    "Emax": "< 65%"
  },
  {
    "MOLECULE": "CC(=O)N1CC2(CCN(C3CCCC(C(F)(F)F)C3)CC2)c2cc(F)ccc21 (centres unmarked) [compound 425]",
    "Emax": "< 65%"
  },
  {
    "MOLECULE": "CC(C)OC(=O)N1C2CCC1CC(N1CCC3(CC1)CN(C(=O)O[C@@H]1CCOC1)c1ccc(F)cc13)C2 (some centres unmarked) [compound 402]",
    "Emax": "65 to 85%"
  },
  {
    "MOLECULE": "c1ccc2c(c1)NCC21CCN(C2CCCCC2)CC1 [compound 375]",
    "Emax": "> 85%"
  },
  {
    "MOLECULE": "CCCOC(=O)N1C2CCC1CC(N1CCC3(CC1)CN(C(=O)OC)c1ccc(F)cc13)C2 (centres unmarked) [compound 386]",
    "Emax": "< 65%"
  },
  {
    "MOLECULE": "Fc1ccc2c(c1)C1(CCN(C[C@@H]3C[C@H]4CC[C@H]3O4)CC1)CN2 [compound 429]",
    "Emax": "< 65%"
  },
  {
    "MOLECULE": "Fc1ccc2c(c1)C1(CCN(C3CC4CCC(C4)C3)CC1)CN2 (centres unmarked) [compound 377]",
    "Emax": "65 to 85%"
  },
  {
    "MOLECULE": "CCOC(=O)N1CCC(N2CCC3(CC2)CN(C(=O)c2cccc(F)c2)c2ccc(F)cc23)CC1 [compound 410]",
    "Emax": "< 65%"
  },
  {
    "MOLECULE": "CC(=O)N1CC2(CCN(CC3CCN(C(=O)O[C@@H]4CCOC4)CC3)CC2)c2cc(C)ccc21 [compound 403]",
    "Emax": "65 to 85%"
  }
]
